# Tested on: HSkMC
# PROTOCOL_DETAILS: cytotoxicity call (relative viability < 0.9)
# EXPERIMENTAL_CONTEXT: 10 µM
The whole screen tested about 39,000 compounds, of which about 1,500 (3.8%) were called active. The list comes from a sample in which actives are over-represented; it also holds close analogues and randomly drawn compounds.

# SAMPLE_SMILES, cytotoxicity call
measured = [
    ("CC(C)NC(=O)Nc1cccc2c1O[C@H](CN(C)Cc1ccc(C(=O)O)cc1)[C@H](C)CN([C@@H](C)CO)C2=O", "inactive"),
    ("C[C@@H]1CN([C@@H](C)CO)C(=O)c2cc(NC(=O)CCN3CCOCC3)ccc2O[C@@H]1CN(C)C(=O)Nc1ccc2c(c1)OCO2", "inactive"),
    ("CC(C)NC(=O)Nc1cccc2c1O[C@H](CN(C)Cc1ccc3c(c1)OCO3)[C@@H](C)CN([C@H](C)CO)C2=O", "inactive"),
]

----------
# Tested on: HSkMC
# PROTOCOL_DETAILS: cytotoxicity call (relative viability < 0.9)
# EXPERIMENTAL_CONTEXT: 10 µM
Among all 39,000 compounds or so, about 1,500 (3.8%) were called active. This excerpt belongs to a sample that is enriched for actives.
Answer with one of the outcomes Y (active), N (inactive)

INPUT: What is the recorded call for this compound in the test? C[C@@H]1CCCCO[C@@H](CN(C)C(=O)Nc2cccc3ccccc23)[C@H](C)CN([C@H](C)CO)C(=O)c2cc(NS(=O)(=O)c3cn(C)cn3)ccc2O1
OUTPUT: N

INPUT: Assay result, entry Cc1nc2ccccc2n1Cc1ccc(Cl)cc1 — outcome?
OUTPUT: N

----------
# Tested on: HSkMC
# PROTOCOL_DETAILS: cytotoxicity call (relative viability < 0.9)
# EXPERIMENTAL_CONTEXT: 10 µM
The whole screen tested about 39,000 compounds, of which about 1,500 (3.8%) were called active. Shown is part of a subset that was picked to be rich in actives.
Choose one outcome from this list and give only that: TRUE for active, FALSE for inactive

These recorded examples may help you get a feel for the data.
# MOLECULE, CLASS_NAME
data = [
    ("COCC(=O)Nc1ccc2c(c1)C(=O)N(C)C[C@@H](OC)[C@@H](C)CN(C(=O)Cc1cccnc1)[C@H](C)CO2", "FALSE"),
    ("CN(Cc1ccc(/C=C/C(=O)Nc2ccc(-c3ccccc3)cc2N)cc1)CC12CC3CC(CC(C3)C1)C2", "TRUE"),
    ("CCC(=O)N1C[C@]2(C1)CN([C@@H](CO)c1[nH]c3cc(ccc3c12)OC)S(=O)(=O)C", "FALSE"),
]

INPUT: Tell me the recorded outcome of this test for C[C@H](CO)N1C[C@H](C)[C@@H](CN(C)C(=O)Nc2ccc3c(c2)OCO3)Oc2ccc(NC(=O)Cn3cnnn3)cc2CC1=O .
OUTPUT: FALSE

INPUT: Hello, I am checking results. What call was entered for C[C@@H]1CN([C@@H](C)CO)C(=O)c2cc(NS(=O)(=O)c3ccc(F)cc3)ccc2O[C@@H](C)CCCCO[C@@H]1CN(C)C(=O)Nc1ccccc1 ?
OUTPUT: FALSE

----------
# Tested on: HSkMC
# PROTOCOL_DETAILS: cytotoxicity call (relative viability < 0.9)
# EXPERIMENTAL_CONTEXT: 10 µM
In all, about 39,000 compounds went through this assay and about 1,500 (3.8%) were called active. The list comes from a sample in which actives are over-represented; it also holds close analogues and randomly drawn compounds.
Respond with a class label; see active, inactive

# SAMPLE_SMILES, CLASS_NAME
records = [
    ("O=C(C[C@@H]1CC[C@H]2[C@@H](COC[C@@H](O)CN2S(=O)(=O)c2ccc(Cl)cc2)O1)NCCN1CCCC1", "inactive"),
]

INPUT: Status in this test for C[C@H]1CN([C@@H](C)CO)C(=O)c2cccc(NC(=O)C3CCOCC3)c2O[C@H]1CN(C)S(=O)(=O)c1cn(C)cn1 ?
OUTPUT: inactive

INPUT: So what was the verdict on S=C(NCCCc1cnc[nH]1)NCCCN(Cc1ccc(Cl)c(Cl)c1)c1ccc(Br)cn1 in this test?
OUTPUT: active

INPUT: Tell me the assay call for CN1CCN(C)C2(CCN(C(=O)c3ccn[nH]3)CC2)C1=O please.
OUTPUT: inactive

----------
# Tested on: HSkMC
# PROTOCOL_DETAILS: cytotoxicity call (relative viability < 0.9)
# EXPERIMENTAL_CONTEXT: 10 µM
The whole screen tested about 39,000 compounds, of which about 1,500 (3.8%) were called active. Only a selection was taken, and actives are over-represented in it overall.
EXPERIMENTAL_READOUT: cytotoxicity call

# SAMPLE_SMILES, cytotoxicity call
data = [
    ("COCC(=O)Nc1ccc2c(c1)C(=O)N(C)C[C@@H](OC)[C@@H](C)CN(C(=O)Cc1cccnc1)[C@@H](C)CO2", "inactive"),
    ("C[C@@H]1CCCCO[C@@H](CN(C)Cc2ccc(Cl)c(Cl)c2)[C@H](C)CN([C@H](C)CO)C(=O)c2cc(NC(=O)c3ccccc3)ccc2O1", "active"),
    ("C[C@@H]1CCCCO[C@@H](CN(C)C(=O)Cc2ccccc2)[C@@H](C)CN([C@H](C)CO)C(=O)c2cc(NC(=O)Nc3ccc(C(F)(F)F)cc3)ccc2O1", "inactive"),
    ("C[C@@H]1CCCCO[C@H](CN(C)C(=O)Cc2ccccc2)[C@H](C)CN([C@@H](C)CO)C(=O)c2cc(NC(=O)Nc3ccc(C(F)(F)F)cc3)ccc2O1", "active"),
    ("C[C@@H]1CCCCO[C@@H](CN(C)C(=O)Cc2ccccc2)[C@@H](C)CN([C@@H](C)CO)C(=O)c2cc(NC(=O)Nc3ccc(C(F)(F)F)cc3)ccc2O1", "inactive"),
]

Note to self: cytotoxicity call recorded for Fc1ccccc1-c1nc2ccn(Cc3ccc(-c4ccc(C(F)(F)F)cc4C(F)(F)F)nn3)cc-2n1 was active

Please fill in: cytotoxicity call reported for C[C@@H]1CCCCO[C@H](CN(C)C(=O)Cc2ccccc2)[C@@H](C)CN([C@H](C)CO)C(=O)c2cc(NC(=O)Nc3ccc(C(F)(F)F)cc3)ccc2O1 = inactive

// cytotoxicity call lookup, compound = C[C@H](CO)N1C[C@H](C)[C@H](CN(C)Cc2ccc(-c3ccccc3)cc2)Oc2ccc(NC(=O)Nc3ccc(F)cc3)cc2C1=O , result: inactive

For reference, reported cytotoxicity call for C[C@@H]1CCCCO[C@@H](CN(C)Cc2ccc(Cl)c(Cl)c2)[C@H](C)CN([C@@H](C)CO)C(=O)c2cc(NC(=O)c3ccccc3)ccc2O1 stands at active

Consider CC(C)NC(=O)Nc1ccc2c(c1)C(=O)N([C@@H](C)CO)C[C@H](C)[C@@H](CN(C)S(=O)(=O)c1ccccc1)O2 . Its measured cytotoxicity call is inactive

----------
# System: HSkMC
# PROTOCOL_DETAILS: cytotoxicity call (relative viability < 0.9)
# EXPERIMENTAL_CONTEXT: 10 µM
The whole screen tested about 39,000 compounds, of which about 1,500 (3.8%) were called active. This excerpt belongs to a sample that is enriched for actives.
Result category, one only: Yes for active, No for inactive

# SAMPLE_SMILES, CLASS_NAME
measured = [
    ("C[C@@H]1CCCCO[C@@H](CN(C)C(=O)c2ccccc2)[C@@H](C)CN([C@H](C)CO)C(=O)c2cc(NS(=O)(=O)c3ccc(Cl)cc3)ccc2O1", "No"),
]

INPUT: Record lookup: outcome of this test for CC(C)/C(=N/O)c1ccccc1 ?
OUTPUT: No

----------
# System: HSkMC (human skeletal muscle cells)
# PROTOCOL_DETAILS: cytotoxicity call (relative viability < 0.9)
# EXPERIMENTAL_CONTEXT: 10 µM
Among all 39,000 compounds or so, about 1,500 (3.8%) were called active. Shown is part of a subset that was picked to be rich in actives.
Just give me one of these, please: T = active, F = inactive

# SAMPLE_SMILES, CLASS_NAME
data = [
    ("Cc1ccc(S(=O)(=O)N(C)C[C@@H]2Oc3ccc(NS(C)(=O)=O)cc3C(=O)N([C@@H](C)CO)C[C@@H]2C)cc1", "F"),
    ("CC1(C)CC[C@]2(C(=O)O[C@@H]3O[C@H](CO)[C@@H](O)[C@H](O)[C@H]3O)CC[C@]3(C)C(=CC[C@H]4[C@@]5(C)CC[C@@H](O[C@@H]6O[C@H](C(=O)O)[C@@H](O[C@@H]7OC[C@@H](O)[C@H](O)[C@H]7O)[C@H](O[C@@H]7OC[C@](O)(CO)[C@H]7O)[C@H]6O)C(C)(C)[C@@H]5CC[C@]43C)[C@@H]2C1", "F"),
    ("C[C@@H]1O[C@@H](O[C@H]2[C@H](O)[C@@H](O)[C@H](OC(=O)[C@]34CCC(C)(C)C[C@H]3C3=CC[C@H]5[C@@]6(C)CC[C@H](O[C@@H]7O[C@H](C(=O)O)[C@@H](O)[C@H](O)[C@H]7O)C(C)(C)[C@@H]6CC[C@@]5(C)[C@]3(C)CC4)O[C@@H]2CO)[C@H](O)[C@H](O)[C@H]1O", "F"),
]

INPUT: Hello, I am checking results. What call was entered for C[C@@H]1CN([C@@H](C)CO)C(=O)c2cc(NS(=O)(=O)c3cn(C)cn3)ccc2O[C@@H]1CN(C)C(=O)Nc1ccc(F)cc1 ?
OUTPUT: F

INPUT: Identify the outcome logged in this assay for the compound shown: CCCCOCCOc1ccc(-c2ccc3c(c2)/C=C(/C(=O)Nc2ccc([S@@](=O)Cc4cncn4CCC)cc2)CCCN3CC(C)C)cc1
OUTPUT: T

INPUT: Check the results log: what was the call for CCOC(=O)c1ccc(N)cc1 ?
OUTPUT: F

INPUT: I'd appreciate the recorded outcome for CC1(C)CC[C@]2(C(=O)O[C@@H]3O[C@H](CO[C@@H]4O[C@H](CO)[C@@H](O)[C@H](O)[C@H]4O)[C@@H](O)[C@H](O)[C@H]3O)CC[C@]3(C)C(=CC[C@H]4[C@@]5(C)CC[C@H](O[C@@H]6OC[C@H](O)[C@H](O)[C@H]6O)C(C)(C)[C@@H]5CC[C@]43C)[C@@H]2C1 from this test.
OUTPUT: F

INPUT: How was CC(=O)O[C@H]1CC(C)(C)C[C@H]2[C@]13CO[C@@]21CC[C@@H]2[C@@]4(C)CC[C@H](O[C@@H]5O[C@H](C(=O)O)[C@@H](O)[C@H](O[C@@H]6O[C@H](CO)[C@H](O)[C@H](O)[C@H]6O[C@@H]6O[C@@H](C)[C@H](O)[C@@H](O)[C@H]6O)[C@H]5O[C@@H]5O[C@H](CO)[C@@H](O)[C@H](O)[C@H]5O)C(C)(C)[C@@H]4CC[C@@]2(C)[C@]1(C)C[C@H]3O classified in this test?
OUTPUT: F
